Property: melting point; scope: individual compounds

{"columns": ["COMPOUND", "melting point / °C"],
 "data": [
  ["COc1ccc(-n2c(=O)n(Cc3cc4cc(Cl)ccc4n3CCCS(C)(=O)=O)c3cnccc32)cc1 [Compound P35]", 215],
  ["N#CCCCn1c(Cn2c(=O)n(-c3ncco3)c3ccncc32)cc2cc(Cl)ccc21 [Compound P37]", 234],
  ["O=c1n(Cc2nc3nc(Cl)ccc3n2CCCCF)c2cnccc2n1-c1nccs1", 238],
  ["O=c1n(Cc2cc3cc(Cl)ccc3n2CCCCF)c2cnccc2n1-c1nccs1 [Compound P11]", 240]
]}

* * *

Test: in vitro
Type: cell-based
Conditions: human

{"columns": ["MOLECULE", "READOUT UNITS", "COMPARATOR", "CC50 at 3 days"],
 "data": [
  ["Cc1ccc(-n2c(=O)n(Cc3cc4cc(Cl)ccc4n3CCCC#N)c3cnccc32)cc1", "µM", ">", 100],
  ["N#CCCCn1c(Cn2c(=O)n(-c3ccc(Cl)cc3)c3ccncc32)cc2cc(Cl)ccc21", "µM", "=", 25.1],
  ["COc1ccc(-n2c(=O)n(Cc3cc4cc(Cl)ccc4n3CCCS(C)(=O)=O)c3cnccc32)cc1", "µM", "=", 31.6],
  ["N#CCCCn1c(Cn2c(=O)n(-c3ccc(C(=O)NC4CC4)cc3)c3ccncc32)cc2cc(Cl)ccc21", "µM", "=", 25.1],
  ["COc1ccc(-n2c(=O)n(Cc3cc4cc(Cl)ccc4n3CCCC#N)c3cnccc32)c(OC)c1", "µM", ">", 100],
  ["CS(=O)(=O)CCCn1c(Cn2c(=O)n(C3CNC3)c3ccc(F)cc32)cc2cc(Cl)ccc21", "µM", "=", 12.6],
  ["CC(C)(C)n1c(=O)n(Cc2cc3cc(Cl)ccc3n2CCCS(C)(=O)=O)c2cnccc21", "µM", "=", 39.8],
  ["O=c1n(Cc2cc3cc(Cl)ccc3n2CCCCF)c2cnccc2n1-c1nccs1", "µM", ">", 25.1],
  ["CC1(n2c(=O)n(Cc3cc4cc(Cl)ccc4n3CCCS(C)(=O)=O)c3cnccc32)CC1", "µM", "=", 50.1],
  ["N#CCCCn1c(Cn2c(=O)n(-c3ccc(C(=O)O)cc3)c3ccncc32)cc2cc(Cl)ccc21", "µM", ">", 25.1],
  ["COc1ccc(-n2c(=O)n(Cc3cc4nc(Cl)ccc4n3CCCC(F)(F)F)c3cnccc32)cc1", "µM", ">", 100]
]}

* * *

{"columns": ["COMPOUND", "melting point, °C"],
 "data": [
  ["CC(C)(C)n1c(=O)n(Cc2cc3cc(Cl)ccc3n2CCCS(C)(=O)=O)c2cnccc21 [Compound P8]", 226],
  ["N#CCCCn1c(Cn2c(=O)n(-c3ccncn3)c3ccncc32)cc2cc(Cl)ccc21 [Compound P24]", 229.17],
  ["CC(=O)N1CC(n2c(=O)n(Cc3cc4cc(Cl)ccc4n3CCCS(C)(=O)=O)c3cnccc32)C1 [Compound P6]", 252],
  ["N#CCCCn1c(Cn2c(=O)n(-c3ccc(Cl)cc3)c3ccncc32)cc2cc(Cl)ccc21 [Compound P39]", 210.8],
  ["N#CCCCn1c(Cn2c(=O)n(-c3nccs3)c3ccc(F)cc32)cc2cc(Cl)ccc21 [Compound P27]", 238.29],
  ["Cn1ccc(-n2c(=O)n(Cc3cc4cc(Cl)ccc4n3CCCC#N)c3cnccc32)n1 [Compound P36]", 244],
  ["CC(C)(C)OC(=O)N1CC(n2c(=O)n(Cc3cc4cc(Cl)ccc4n3CCCS(C)(=O)=O)c3cc(F)ccc32)C1 [Compound P2]", 185],
  ["COc1ccc(-n2c(=O)n(Cc3cc4cc(Cl)ccc4n3CCCC#N)c3cnccc32)cc1OC [Compound P19]", 176.51]
]}

* * *

Test: in vitro
Format: cell-based
Settings: human

{"columns": ["COMPOUND", "CC50 at 3 days"],
 "data": [
  ["CS(=O)(=O)CCCn1c(Cn2c(=O)n(-c3ccc(Cl)cc3)c3ccncc32)cc2cc(Cl)ccc21", "> 100 µM"],
  ["CS(=O)(=O)CCCn1c(Cn2c(=O)n(C3CNC3)c3ccncc32)cc2cc(Cl)ccc21", "> 100 µM"],
  ["N#CCCCn1c(Cn2c(=O)n(-c3ncccn3)c3ccncc32)cc2cc(Cl)ccc21", "> 100 µM"],
  ["COc1ccc(-n2c(=O)n(Cc3nc4nc(Cl)ccc4n3CCC(C)C)c3cnccc32)cc1", "> 50.1 µM"],
  ["Cn1ccc(-n2c(=O)n(Cc3cc4cc(Cl)ccc4n3CCCC#N)c3cnccc32)n1", "63.1 µM"],
  ["CS(=O)(=O)c1ccc(-n2c(=O)n(Cc3cc4cc(Cl)ccc4n3CCCC#N)c3cnccc32)cc1", "> 100 µM"],
  ["CC(C)(C)OC(=O)N1CC(n2c(=O)n(Cc3cc4cc(Cl)ccc4n3CCCS(C)(=O)=O)c3cnccc32)C1 [Compound P1]", "50.1 µM"],
  ["N#CCCCn1c(Cn2c(=O)n(-c3ccncn3)c3ccncc32)cc2cc(Cl)ccc21", "> 50.1 µM"],
  ["N#CCCCn1c(Cn2c(=O)n(-c3ccncc3)c3ccncc32)cc2cc(Cl)ccc21", "> 100 µM"],
  ["COc1ccc(-n2c(=O)n(Cc3cc4cc(Cl)ccc4n3CCCC#N)c3cnccc32)cc1F", "> 100 µM"],
  ["Cn1ccc(-n2c(=O)n(Cc3cc4cc(Cl)ccc4n3CCCCF)c3cnccc32)n1", "> 100 µM"],
  ["COc1ccc(-n2c(=O)n(Cc3cc4cc(Cl)ccc4n3CCCC#N)c3cnccc32)c(C)c1", "> 100 µM"],
  ["CS(=O)(=O)CCCn1c(Cn2c(=O)n(C3CN(S(C)(=O)=O)C3)c3ccncc32)cc2cc(Cl)ccc21", "100 µM"],
  ["COc1ccc(-n2c(=O)n(Cc3cc4cc(Cl)ccc4n3CCCC#N)c3cnccc32)cc1OC", "> 100 µM"],
  ["COc1ccc(-n2c(=O)n(Cc3cc4cc(Cl)ccc4n3CCCCF)c3cnccc32)cc1", "79.4 µM"],
  ["O=c1n(Cc2cc3cc(Cl)ccc3n2CCCCF)c2cnccc2n1-c1ccc(Cl)cc1", "> 100 µM"],
  ["CC(=O)N1CC(n2c(=O)n(Cc3cc4cc(Cl)ccc4n3CCCS(C)(=O)=O)c3cnccc32)C1", "> 25.1 µM"],
  ["CC(C)CCn1c(Cn2c(=O)n(-c3ccncc3)c3ccncc32)nc2nc(Cl)ccc21", "> 100 µM"],
  ["CC(C)CCn1c(Cn2c(=O)n(-c3nccs3)c3ccncc32)nc2nc(Cl)ccc21", "25.1 µM"],
  ["Cn1ccnc1-n1c(=O)n(Cc2cc3cc(Cl)ccc3n2CCCC#N)c2cnccc21", "> 100 µM"],
  ["CC(C)(C)OC(=O)N1CC(n2c(=O)n(Cc3cc4cc(Cl)ccc4n3CCCS(C)(=O)=O)c3cc(F)ccc32)C1 [Compound P2]", "10 µM"],
  ["N#CCCCn1c(Cn2c(=O)n(-c3ccc4ncccc4c3)c3ccncc32)cc2cc(Cl)ccc21", "> 100 µM"],
  ["CC(C)(O)CN1CC(n2c(=O)n(Cc3cc4cc(Cl)ccc4n3CCCS(C)(=O)=O)c3cc(F)ccc32)C1", "12.6 µM"],
  ["N#CCCCn1c(Cn2c(=O)n(-c3ncco3)c3ccncc32)cc2cc(Cl)ccc21", "> 100 µM"],
  ["CC(C)CCn1c(Cn2c(=O)n(C3(C)CC3)c3ccncc32)nc2nc(Cl)ccc21", "> 100 µM"],
  ["N#CCCCn1c(Cn2c(=O)n(-c3nccs3)c3ccncc32)cc2cc(Cl)ccc21", "> 25.1 µM"],
  ["N#CCCCn1c(Cn2c(=O)n(-c3ccc(OC(F)(F)F)cc3)c3ccncc32)cc2cc(Cl)ccc21", "> 100 µM"],
  ["CC(C)CCn1c(Cn2c(=O)n(-c3nccs3)c3ccc(F)cc32)nc2nc(Cl)ccc21", "> 50.1 µM"],
  ["CC(C)CCn1c(Cn2c(=O)n(-c3ccncc3F)c3ccncc32)nc2nc(Cl)ccc21", "> 100 µM"],
  ["COc1ccc(-n2c(=O)n(Cc3cc4cc(Cl)ccc4n3CCCC#N)c3cnccc32)c(F)c1", "15.8 µM"],
  ["COCCOc1ccc(-n2c(=O)n(Cc3cc4cc(Cl)ccc4n3CCCC#N)c3cnccc32)cc1", "> 100 µM"]
]}

* * *

Lab note: anything with melting point below 200 °C is marked criterion met; values at 200 °C or higher are marked criterion not met.

{"columns": ["MOLECULE", "CAT"],
 "data": [
  ["CC(C)CCn1c(Cn2c(=O)n(-c3nccs3)c3ccc(F)cc32)nc2nc(Cl)ccc21 [Compound P25]", "criterion not met"],
  ["O=c1n(Cc2cc3cc(Cl)ccc3n2CCCCF)c2cnccc2n1-c1ccc(Cl)cc1 [Compound P34]", "criterion met"],
  ["Cn1ccc(-n2c(=O)n(Cc3cc4cc(Cl)ccc4n3CCCCF)c3cnccc32)n1 [Compound P38]", "criterion met"],
  ["CC(C)CCn1c(Cn2c(=O)n(-c3nccs3)c3ccncc32)nc2nc(Cl)ccc21 [Compound P22]", "criterion not met"],
  ["CS(=O)(=O)CCCn1c(Cn2c(=O)n(C3CN(S(C)(=O)=O)C3)c3ccncc32)cc2cc(Cl)ccc21 [Compound P5]", "criterion not met"],
  ["COc1ccc(-n2c(=O)n(Cc3cc4cc(Cl)ccc4n3CCCCF)c3cnccc32)cc1 [Compound P32]", "criterion met"],
  ["CC(C)CCn1c(Cn2c(=O)n(-c3ccncc3F)c3ccncc32)nc2nc(Cl)ccc21 [Compound P26]", "criterion met"],
  ["COc1ccc(-n2c(=O)n(Cc3cc4cc(Cl)ccc4n3CCCC#N)c3cnccc32)c(C)c1 [Compound P20]", "criterion met"]
]}
